target: Sialic acid-binding Ig-like lectin 9 (Homo sapiens) (UniProt Q9Y336); assay: Hs-Siglec9 ALPHAscreen SOP 20170721; set-up: scale not given: direction of the effect not stated beside the values; conditions: 10 µM
Sequence (Q9Y336 whole entry): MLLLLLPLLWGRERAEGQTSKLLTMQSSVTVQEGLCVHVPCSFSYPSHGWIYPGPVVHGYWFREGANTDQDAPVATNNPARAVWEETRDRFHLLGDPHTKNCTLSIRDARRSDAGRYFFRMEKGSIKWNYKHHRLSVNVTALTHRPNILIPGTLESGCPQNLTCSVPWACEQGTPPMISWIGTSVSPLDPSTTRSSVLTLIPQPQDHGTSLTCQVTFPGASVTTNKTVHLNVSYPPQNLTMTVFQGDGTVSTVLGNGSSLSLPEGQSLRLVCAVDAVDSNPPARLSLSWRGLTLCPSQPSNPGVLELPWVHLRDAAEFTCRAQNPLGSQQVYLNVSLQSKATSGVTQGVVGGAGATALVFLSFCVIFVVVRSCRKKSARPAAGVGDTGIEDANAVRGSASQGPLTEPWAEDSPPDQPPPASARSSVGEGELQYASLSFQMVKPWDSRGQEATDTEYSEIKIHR
Measurement Name: Percent Effect (%)
Your answer should be a plain number; it is taken to be in %.

Below: 5 molecules and their reported Percent Effect.
INSERT INTO results (molecule, measurement_name, measurement_units, val) VALUES
  ('CN(Cc1cn2c(n1)CN(CC1CC1)CC2)Cc1ccco1', 'Percent Effect', '%', 0.972),
  ('COc1ccc(C)cc1NC(=O)Nc1cnc(N2CCN(C)CC2)nc1', 'Percent Effect', '%', -0.124),
  ('COc1ccc(NC(=O)C(c2cccc(F)c2)N2CCOCC2)cc1 (stereo not drawn)', 'Percent Effect', '%', 2.98),
  ('CC(NC(=O)NCc1ccc(Cl)cc1)c1ccccn1 (stereo not drawn)', 'Percent Effect', '%', 3.62),
  ('COCc1ccccc1NC(=O)[C@@H]1CCCN1C(=O)c1ccco1', 'Percent Effect', '%', 20.1);

Exercise: Return reported Percent Effect; argument: Cc1ncoc1C(=O)N1C[C@H]2CCC[C@@]2(COCC2CCOCC2)C1
Solution: -0.295

Exercise: Return reported Percent Effect; argument: Cc1ccc(-c2nc(CN3CCc4nn(C)c(=O)cc4C3)no2)cc1
Solution: -4.73

Exercise: Return reported Percent Effect; argument: CC(NC(=O)NCCN1CCCCCC1=O)c1nncn1C (stereo not drawn)
Solution: 13.4

Exercise: Return reported Percent Effect; argument: CS(=O)(=O)NC[C@]12COC[C@H]1CN(C(=O)Cc1ccccc1F)C2
Solution: -7.42

Exercise: Return reported Percent Effect; argument: CC(C)(C)c1cnc(CN2CCC(c3ccnn3CCO)CC2)o1
Solution: 9.51

Exercise: Return reported Percent Effect; argument: CC(C)N1CC(C(=O)NCCOc2ccc3c(c2)OCO3)CC1=O (stereo not drawn)
Solution: -5.15

Exercise: Return reported Percent Effect; argument: Cc1cccc(CN2CCc3c(nc(N4CCCCC4C)[nH]c3=O)C2)n1 (stereo not drawn)
Solution: 7.92

Exercise: Return reported Percent Effect; argument: COc1cc(CNC(=O)NCCCF)cc(Br)c1OC
Solution: -1.26

Exercise: Return reported Percent Effect; argument: CCn1ccnc1CN1CCN(C(C)C(=O)NC2CCCCC2)CC1 (stereo not drawn)
Solution: -3.82

Exercise: Return reported Percent Effect; argument: CC(C)n1ccnc1CN1CCCN(C(=O)CC2C=CCC2)CC1 (stereo not drawn)
Solution: -5.19

Exercise: Return reported Percent Effect; argument: Cc1nn(C)c(C)c1C1CCCN1CC(=O)Nc1ccncc1 (stereo not drawn)
Solution: -1.63

Exercise: Return reported Percent Effect; argument: COCCCN1CCC(NC(=O)C(C)C)CC1
Solution: -2.06

Exercise: Return reported Percent Effect; argument: CC(C)N(C)Cc1cnc2n1CCN(CCc1ccccc1)C2
Solution: -2.38

Exercise: Return reported Percent Effect; argument: Cc1cccnc1NC(=O)NCc1ccc(N2CCNC(=O)C2)cc1
Solution: 11.4

Exercise: Return reported Percent Effect; argument: CC(=O)NCC(=O)N1CCn2cc(CN3CCN(C)CC3)nc2C1
Solution: 14.9

Exercise: Return reported Percent Effect; argument: CCc1nc(C2CCCN2CC(=O)Nc2nncs2)no1 (stereo not drawn)
Solution: 12.8

Exercise: Return reported Percent Effect; argument: CN(CC(=O)N1CCC(Oc2ccccc2)CC1)c1cnccn1
Solution: 7.97

Exercise: Return reported Percent Effect; argument: O=C(Nc1ccccn1)C1=NN(c2ccccc2)C(=O)CN1
Solution: -13.4

Exercise: Return reported Percent Effect; argument: Cc1cccc(NS(=O)(=O)c2cc(C(=O)O)oc2C)c1Cl
Solution: 9.91
